Assayed System: β-secretase(BACE) (Homo sapiens, UniProt P56817)
Construct: purchased Panvera
Sequence (P56817 46-501): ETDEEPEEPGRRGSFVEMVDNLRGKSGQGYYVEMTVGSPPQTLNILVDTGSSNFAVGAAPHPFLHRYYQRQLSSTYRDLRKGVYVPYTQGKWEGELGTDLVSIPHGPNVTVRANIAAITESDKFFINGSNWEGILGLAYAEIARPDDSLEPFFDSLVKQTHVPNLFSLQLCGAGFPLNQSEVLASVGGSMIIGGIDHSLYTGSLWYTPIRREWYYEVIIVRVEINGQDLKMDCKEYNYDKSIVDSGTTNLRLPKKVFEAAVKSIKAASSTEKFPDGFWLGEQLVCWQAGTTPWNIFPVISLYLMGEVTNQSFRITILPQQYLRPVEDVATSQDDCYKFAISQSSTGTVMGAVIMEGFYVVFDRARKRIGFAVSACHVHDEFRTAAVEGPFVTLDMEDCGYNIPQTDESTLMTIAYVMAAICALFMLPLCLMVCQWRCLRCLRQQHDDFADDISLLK
Protocol Description: BACE FS1% Inhibition Assay
Assay type: biochemical
Experimental Parameters: 3 μM test compound; FS1 substrate; read-out: % Inhibition (FS) 3 μM
Property Name: inhibition at 3 µM (%)

Compound	Property Name	Number
CN(C(=O)c1cccc(CN2Cc3cc(-c4cccc5ccccc45)ccc3N=C2N)c1)C1CCCCC1 [Compound 330]	inhibition at 3 µM	114
COc1ccccc1-c1ccc2c(c1)CN(CCC(=O)NC1CCCCC1)C(N)=N2 [Compound 610]	inhibition at 3 µM	119

(A) NC1=Nc2ccc(Oc3ccccc3)cc2CN1C(CNC(=O)C1CCCCC1)C1CCCCC1 (stereo not shown) [Compound 294]
(B) CC(C)C(CC(=O)N(C)C1CCCCC1)N1Cc2cc(Oc3ccccc3)ccc2N=C1N (stereo not shown) [Compound 201]
Input line: A or B : whose inhibition at 3 µM is greater? Field: selected label. Fill in the label of the entry you choose.
Output line: A

----------
Assayed System: β-secretase(BACE) (Homo sapiens, UniProt P56817)
Construct: purchased Panvera
Protocol Description: BACE FS1% Inhibition Assay
Assay type: biochemical
Experimental Parameters: 0.3 μM test compound; FS1 substrate; read-out: % Inhibition (FS) 0.3 μM
Property Name: inhibition at 0.3 µM (%)

Study these solved cases before continuing.
Compound	Assayed System	Uom	inhibition at 0.3 µM
NC1=Nc2ccc(-c3ccccc3Cl)cc2CN1CCNC(=O)C1CCCCC1	β-secretase(BACE) (Homo sapiens, UniProt P56817)	%	61
CC(C)[C@H](CCC(=O)N(C)C1CCCCC1)N1Cc2cc(Oc3ccccc3)ccc2N=C1N	β-secretase(BACE) (Homo sapiens, UniProt P56817)	%	97
Cc1noc(C)c1-c1ccc2c(c1)CN(Cc1cccc(C(=O)N(C)C3CCCCC3)c1)C(N)=N2	β-secretase(BACE) (Homo sapiens, UniProt P56817)	%	34
CN(C(=O)c1cccc(CN2Cc3cc(-c4ccccc4O)ccc3N=C2N)c1)C1CCCCC1	β-secretase(BACE) (Homo sapiens, UniProt P56817)	%	80
CC1CCCCC1NC(=O)CCN1Cc2cc(Oc3ccccc3)ccc2N=C1N (stereo not shown)	β-secretase(BACE) (Homo sapiens, UniProt P56817)	%	34
CC(C)CCC(=O)NC[C@@H](C(C)C)N1Cc2cc(Oc3ccccc3)ccc2N=C1N	β-secretase(BACE) (Homo sapiens, UniProt P56817)	%	112
CCOc1ccccc1-c1ccc2c(c1)CN(Cc1cccc(C(=O)N(C)C3CCCCC3)c1)C(N)=N2	β-secretase(BACE) (Homo sapiens, UniProt P56817)	%	92
NC1=Nc2ccc(Oc3ccccc3)cc2CN1CCNC(=O)C1(c2ccc(Cl)cc2)CCCC1	β-secretase(BACE) (Homo sapiens, UniProt P56817)	%	65

(1) CC(C)CCC(=O)NCCN1Cc2cc(-c3ccccc3Cl)ccc2N=C1N
(2) COC1CCCC(C(=O)NCCN2Cc3cc(Oc4ccccc4)ccc3N=C2N)C1 (stereo not shown)
Input line: Please indicate which has the smaller reported inhibition at 0.3 µM: 1 , or 2 . Field: selected label. Fill in the label of the entry you choose.
Output line: 2

----------
Assayed System: β-secretase(BACE) (Homo sapiens, UniProt P56817)
Construct: purchased Panvera
Protocol Description: BACE Assay-1 (MCA-substrate, IC50)
Assay type: biochemical
Experimental Parameters: procedure of Example 158; read-out: IC50 μM (158)
Property Name: IC50 (µM)

Molecule	Property Name	Number
Cc1ccc(C(CCC(=O)N(C)C2CCCCC2)N2Cc3cc(Oc4ccccc4)ccc3N=C2N)cc1 (centres unmarked) [Compound 421]	IC50	0.054
COc1cc(C)ccc1S(=O)(=O)Nc1cccc(Oc2ccc3c(c2)CN(CCCCCO)C(N)=N3)c1 [Compound 355]	IC50	2.6
CN(C(=O)CCN1Cc2cc(C(=O)c3ccccc3)ccc2N=C1N)C1CCCCCC1 [Compound 4]	IC50	2.5

(1) CCCN1Cc2cc(OCc3cccc(NS(=O)(=O)c4ccccc4)c3)ccc2N=C1N [Compound 203]
(2) CN(C1CCCCC1)S(=O)(=O)CCN1Cc2cc(Oc3cccc(NC(=O)OCc4ccccc4)c3)ccc2N=C1N [Compound 71]
(3) CN(C(=O)CCN1Cc2ccccc2N=C1N)c1ccccc1 [Compound 800]
(4) CN(C(=O)c1cccc(CN2Cc3cc(-c4ccccc4O)ccc3N=C2N)c1)C1CCCCC1 [Compound 169]
(5) COc1ccccc1-c1ccc2c(c1)CN(CCNC(=O)C1CCCCC1)C(N)=N2 [Compound 487]
Input line: Ascending by IC50, please: list the molecules accordingly. Lab note: final answer is the ordered label list.
Output line: 4, 5, 2, 1, 3
(4: 0.058 µM, 5: 0.36 µM, 2: 2.6 µM, 1: 4.7 µM, 3: 17 µM)

----------
Assayed System: β-secretase(BACE) (Homo sapiens)
Construct: purchased Panvera
Protocol Description: BACE % Inhibition Assay ((Aedens)-[…]-(Dabcyl K-amide) substrate)
Format: biochemical
Experimental Parameters: 3 μM test compound; % error ±10%
Procedure: The substrate stock solution was prepared in DMSO as a 10 mg/mL solution. The substrate working solution was prepared by diluting the 10 mg/mL stock solution with substrate assay buffer to a final concentration of 300 μg/mL. The β-secretase (BACE) working solution was prepared by diluting a 0.83 mg/mL BACE stock solution with enzyme assay buffer to a final concentration of 4 μg/mL. […] For test compounds, % inhibition was determined at each concentration as follows: […]
Property Name: % Inhibition

Study these solved cases before continuing.
Compound	Result
CN(C(=O)[C@@H]1CCCN1C(=O)CN1Cc2cc(Oc3ccccc3)ccc2N=C1N)C1CCCCC1 [Compound 88]	<30%
NC1=Nc2ccc(Oc3ccccc3)cc2CN1Cc1cccc(CNC(=O)C23CC4CC(CC(C4)C2)C3)c1 [Compound 336]	<30%
CCCC(CCCC(=O)N(CC)C1CCCCC1)N1Cc2cc(Oc3ccccc3)ccc2N=C1N (stereo not shown) [Compound 105]	<30%

// moving on: another record for % Inhibition
Input line: Hi! What's the reported % Inhibition for CC(C)(C)C(=O)NCC(C1CCCCC1)N1Cc2cc(Oc3ccccc3)ccc2N=C1N (stereo not shown) [Compound 317] on β-secretase(BACE) (Homo sapiens)?
Output line: 107%

----------
Assayed System: β-secretase(BACE) (Homo sapiens, UniProt P56817)
Construct: purchased Panvera
Protocol Description: BACE FS1% Inhibition Assay
Format: biochemical
Experimental Parameters: 3 μM test compound; FS1 substrate; read-out: % Inhibition (FS)
Property Name: inhibition at 3 µM (%)

Study these solved cases before continuing.
Compound	inhibition at 3 µM [%]
CN(C(=O)CC[C@@H](C1CCCCC1)N1Cc2c(cccc2Oc2ccccc2)N=C1N)C1CCCCC1	93
CN(C(=O)CC[C@@H](C1CCCCC1)N1Cc2cc(Oc3ccccc3)ccc2N=C1N)C1CCC(C(=O)O)CC1 (some centres unmarked)	138
COC(=O)[C@H](COCc1ccccc1)NC(=O)CC[C@@H](C1CCOCC1)N1Cc2cc(Oc3ccccc3)ccc2N=C1N	107

(P) COC(=O)[C@H]1CC[C@@H](N(C)C(=O)CC[C@@H](C2CCOCC2)N2Cc3cc(Oc4ccccc4)ccc3N=C2N)CC1
(Q) CN(C(=O)c1cccc(CN2Cc3cc(Br)ccc3N=C2N)c1)C1CCCCC1
Input line: Please indicate which has the smaller reported inhibition at 3 µM: P , or Q . Field: selected label. Fill in the label of the entry you choose.
Output line: Q
(Q: 50%, P: 112%)

----------
Assayed System: β-secretase(BACE) (Homo sapiens, UniProt P56817)
Construct: purchased Panvera
Protocol Description: BACE FS1% Inhibition Assay
Format: biochemical
Experimental Parameters: 1 μM test compound; FS1 substrate; read-out: % Inhibition (FS) 1 μM
Property Name: inhibition at 1 µM (%)

Compound	inhibition at 1 µM (%)
NC1=Nc2ccc(-c3ccccc3F)cc2CN1CCNC(=O)C1CCCCC1 [Compound 535]	86
CN(C(=O)c1cccc(CN2Cc3cc(-c4ccccc4F)ccc3N=C2N)c1)C1CCCCC1 [Compound 334]	103

(A) CN(C(=O)CCCN1Cc2cc(Oc3ccccc3)ccc2N=C1N)C1CCCCC1 [Compound 177]
(B) NC1=Nc2ccc(-c3cccc(CO)c3)cc2CN1CCNC(=O)CC1CCCC1 [Compound 583]
Input line: Please indicate which has the smaller reported inhibition at 1 µM: A , or B . Field: selected label. Fill in the label of the entry you choose.
Output line: B
(B: 56%, A: 80%)

----------
Assayed System: β-secretase(BACE) (Homo sapiens, UniProt P56817)
Construct: purchased Panvera
Protocol Description: BACE % Inhibition Assay ((Aedens)-[…]-(Dabcyl K-amide) substrate)
Format: biochemical
Experimental Parameters: 1 μM test compound; % error ±10%
Property Name: inhibition at 1 µM (%)

Molecule	Uom	Number
NC1=Nc2ccc(Oc3ccccc3)cc2CN1C(CCNC(=O)C1CCCCC1)C1CCCCC1 (centres unmarked) [Compound 391]	%	93
NC1=Nc2ccc(Oc3ccccc3)cc2CN1CCNC(=O)C1CCCCC1 [Compound 111]	%	96
CCCC(CNC(=O)C1CCCCC1)N1Cc2cc(Oc3ccccc3)ccc2N=C1N (centres unmarked) [Compound 343]	%	101
CC(C)(C)OC(=O)NCC(C1CCCCC1)N1Cc2cc(Oc3ccccc3)ccc2N=C1N (centres unmarked) [Compound 367]	%	80
CC(C)CC(=O)NCC(C1CCCCC1)N1Cc2cc(Oc3ccccc3)ccc2N=C1N (centres unmarked) [Compound 389]	%	112
NC1=Nc2ccc(Oc3ccccc3)cc2CN1C(CNC(=O)C1CCCCC1)c1ccccc1 (centres unmarked) [Compound 342]	%	93
NC1=Nc2ccc(Oc3ccccc3)cc2CN1C(CNC(=O)CCC1CCCC1)C1CCCCC1 (centres unmarked) [Compound 366]	%	113
NC1=Nc2ccc(Oc3ccccc3)cc2CN1C(CNC(=O)c1ccccc1)C1CCCCC1 (centres unmarked) [Compound 319]	%	95
